experiment: Cell viability (MTT) assay on macrophages in primary culture
Format: cell-based
condition-parameters: Wistar, mouse, peritoneal macrophages in primary culture, concentrations 2.41 × 10^–4 to 2.41 mM, read-out: half cytotoxic concentration (IC50)

| compound | IC50 at 3 h, mM |
| --- | --- |
| CC(C)Cc1ccc(C(=O)OCCOC(=O)C(C)c2ccc(CC(C)C)cc2)cc1 (stereo not shown) [Compound 2] | 4.9 |

---

experiment: Ferric reducing antioxidant power (FRAP) test
Assay type: biochemical
condition-parameters: mean of duplicate, 505 nm; read-out: FRAP mean SC50
Strictly below 7 mM in EC50: T. Otherwise: F.

| compound | class-label |
| --- | --- |
| CCCCCCCCCCCC(=O)OCCOC(=O)C(C)c1ccc(CC(C)C)cc1 (centres unmarked) | T |
| O=C(OCCOC(=O)c1ccccc1O)c1ccccc1O [Compound 13, Ethane-1,2-diyl bis(2-hydroxybenzoate)] | T |
| O=C(O)c1cc(O)c(O)c(O)c1 [gallic acid, reference compound] | T |
| CCCCCCCC/C=C\CCCCCCCC(=O)OCCOC(=O)C(C)c1ccc(CC(C)C)cc1 (centres unmarked) | T |
| O=C(O)/C=C/c1ccccc1 [Compound 11, cinnamic acid, reference compound] | F |
| CC(C)Cc1ccc(C(C)C(=O)O)cc1 (centres unmarked) [Compound 1, ibuprofen, reference compound] | F |
| O=C(/C=C/c1ccccc1)OCCOC(=O)c1ccccc1O | T |
| CC(C)Cc1ccc(C(C)C(=O)OCCO)cc1 (centres unmarked) | F |
| CCCCCCCCCCCC(=O)OCCOC(=O)c1ccccc1O | F |
| O=C(OCCO)c1ccccc1O [Compound 7, 2-hydroxyethyl 2-hydroxybenzoate] | F |

---

experiment: ABTS radical cation scavenging (decolorization) test
Type: biochemical
condition-parameters: first replicate, 734 nm, 30 min; read-out: ABTS SC50(1)
Strictly below 2000 µM in EC50: condition met. Otherwise: condition not met.

| compound | class-label |
| --- | --- |
| CCCCCCCCCCCC(=O)OCCOC(=O)c1ccccc1O | condition not met |
| CC(C)Cc1ccc(C(C)C(=O)O)cc1 (stereo not drawn) [Compound 1, ibuprofen, reference compound] | condition met |
| O=C(O)/C=C/c1ccccc1 [Compound 11, cinnamic acid, reference compound] | condition not met |
| CC(C)Cc1ccc(C(C)C(=O)OCCO)cc1 (stereo not drawn) | condition not met |
| CCCCCCCC/C=C\CCCCCCCC(=O)OCCOC(=O)C(C)c1ccc(CC(C)C)cc1 (stereo not drawn) | condition not met |
| O=C(/C=C/c1ccccc1)OCCOC(=O)c1ccccc1O | condition not met |
| O=C(OCCOC(=O)c1ccccc1O)c1ccccc1O [Compound 13, Ethane-1,2-diyl bis(2-hydroxybenzoate)] | condition met |
| CC(C)Cc1ccc(C(=O)OCCOC(=O)C(C)c2ccc(CC(C)C)cc2)cc1 (stereo not drawn) | condition met |
| O=C(O)c1cc(O)c(O)c(O)c1 [gallic acid, reference compound] | condition met |

---

experiment: DPPH radical scavenging test
Type: biochemical
condition-parameters: first replicate, 517 nm, 30 min; read-out: DPPH SC50(1)
test-readout: log10 of EC50 (log10 of the value in mM)

| molecule | test-readout | numeric-readout |
| --- | --- | --- |
| O=C(O)c1cc(O)c(O)c(O)c1 [gallic acid, reference compound] | log10 of EC50 | -1.82 |
| CC(C)Cc1ccc(C(=O)OCCOC(=O)C(C)c2ccc(CC(C)C)cc2)cc1 (stereo not drawn) [Compound 2] | log10 of EC50 | 0.70 |
| O=C(/C=C/c1ccccc1)OCCOC(=O)c1ccccc1O [Compound 12] | log10 of EC50 | 0.94 |
| O=C(OCCO)c1ccccc1O [Compound 7, 2-hydroxyethyl 2-hydroxybenzoate] | log10 of EC50 | 1.09 |
| CC(C)Cc1ccc(C(C)C(=O)OCCOC(=O)C=Cc2ccccc2)cc1 (stereo not drawn) [Compound 14] | log10 of EC50 | 0.82 |
| CC(C)Cc1ccc(C(C)C(=O)OCCO)cc1 (stereo not drawn) [Compound 3] | log10 of EC50 | 1.02 |
| O=C(O)/C=C/c1ccccc1 [Compound 11, cinnamic acid, reference compound] | log10 of EC50 | 1.05 |
| CC(C)Cc1ccc(C(C)C(=O)O)cc1 (stereo not drawn) [Compound 1, ibuprofen, reference compound] | log10 of EC50 | 0.99 |
| CCCCCCCCCCCC(=O)OCCOC(=O)C(C)c1ccc(CC(C)C)cc1 (stereo not drawn) [Compound 5a] | log10 of EC50 | 0.54 |
| O=C(OCCOC(=O)c1ccccc1O)c1ccccc1O [Compound 13, Ethane-1,2-diyl bis(2-hydroxybenzoate)] | log10 of EC50 | 0.82 |
| CCCCCCCCCCCC(=O)OCCOC(=O)c1ccccc1O [DEW4a] | log10 of EC50 | 0.76 |
| CCCCCCCC/C=C\CCCCCCCC(=O)OCCOC(=O)C(C)c1ccc(CC(C)C)cc1 (stereo not drawn) [Compound 5b] | log10 of EC50 | 0.81 |
